# credit: PubChem BioAssay (NCI)

test system: RPMI-8226 leukemia; experiment: NCI tumour cell line growth inhibition, 48 h; in the data active = GI50 below about 0.43 µM; inactive = the rest
Outcomes: active, inactive

>  <compound>
COc1ccc2[nH]c(C(=O)N3CCN(C(=O)OCc4ccc5c(Cl)cc(Cl)c(O)c5n4)CC3)cc2c1

>  <category>
active

$$$$
>  <compound>
CCN(CC)C(=S)SSC(C)C

>  <category>
inactive

$$$$
>  <compound>
O=S(=O)(NC1=NCCN1C(=S)SN1CCn2c1nsc2=S)c1ccc(Cl)cc1

>  <category>
inactive

$$$$
>  <compound>
COc1ccc(-n2cc(-c3ccc(OC)c(OC)c3)[nH]c2=O)cc1

>  <category>
inactive

$$$$
>  <compound>
COC1=CC(c2ccc[nH]2)=N/C1=C\c1[nH]c(C)c(C(=O)CCCCCCCCC(=O)O[C@H]2CC[C@H]3C4CCc5cc(O)ccc5C4CC[C@]23C)c1C (stereo partly drawn)

>  <category>
inactive

$$$$
>  <compound>
Cc1ccc(/C(=N/Nc2ccc([N+](=O)[O-])cc2)Sc2cc(Cl)c(C)cc2S(N)(=O)=O)cc1

>  <category>
inactive

$$$$
>  <compound>
COc1cc2c(cc1C)NC(=O)/C2=C/c1ccnc2ccccc12

>  <category>
inactive

$$$$
>  <compound>
COc1cccc(-c2cc(C(=O)Nc3ccc(/C=C/c4ccc(OC5CCN(C)CC5)cc4)cc3)ccc2OC)c1

>  <category>
inactive

$$$$
>  <compound>
CCC[CH2][Sn-]([CH2]CCC)([CH2]CCC)[O]C(=O)C(C)C

>  <category>
active

$$$$
>  <compound>
O=C1NC(=NCCc2ccc(Cl)cc2)S/C1=C\c1ccc2ncccc2c1

>  <category>
inactive

$$$$
>  <compound>
COc1cc2c(cc1OCCNC(=O)/C=C1\C[C@H]3C=Nc4cc(OCc5ccccc5)c(OC)cc4C(=O)N3C1)N=C[C@@H]1CCCN1C2=O

>  <category>
inactive

$$$$
>  <compound>
CCCC(=O)O[C@]1(C)CC[C@@H]2[C@H]3[C@@H]1[C@@H]1C[C@@](C)(O)[C@H](OC)CC[C@](C)(OC(=O)[C@@H]2C)[C@H]3O1

>  <category>
inactive

$$$$
>  <compound>
CC(=O)[CH-]C(C)=O.CC(=O)[CH-]C(C)=O.[O-]c1ccccc1.[O-]c1ccccc1.[Ti+4]

>  <category>
inactive

$$$$
>  <compound>
COc1cc(N2C(=O)[C@H](Cl)C2c2ccc(SC)cc2)cc(OC)c1OC (stereo partly drawn)

>  <category>
active

$$$$
>  <compound>
Nc1cc2c3c(cccc3c1)C(=O)N(CCN1CCCC1)C2=O

>  <category>
inactive

$$$$
>  <compound>
COc1ccc(-n2c(=S)sc3c(Cl)nc(C)nc32)c(OC)c1

>  <category>
inactive

$$$$
>  <compound>
CCCCCCCC/C=C/CCCCCCCC1=NC(C)(C)CN1C(C)(C)CO

>  <category>
inactive

$$$$
>  <compound>
CC1(C)CC(C)(C)c2cc(NC(=S)Nc3ccc([N+](=O)[O-])cc3)ccc2S1

>  <category>
inactive

$$$$

* * *

system: HS 578T breast; test: NCI tumour cell line growth inhibition, 48 h
// values below are reported log10 of TGI
result.type: log10 of TGI (log10 of the value in µM)

>  <compound>
COc1cc2c(/C=C3/C(=O)Nc4ccccc43)c(Cl)n(Cc3ccc(Cl)cc3)c2cc1C

>  <log10 of TGI>
0.95

$$$$
>  <compound>
O=S(=O)(Nc1nc2ccccc2nc1N1CCCCCC1)c1ccccc1

>  <log10 of TGI>
1.92

$$$$
>  <compound>
CCCCCCCC(=O)OCC/C=C/C1OC1C1OC(=O)/C=C\C=C\C(=O)N(C(C)=O)C(=O)/C=C(/C)CCC2OC2C1OC(=O)NC(C)=O (stereo not given)

>  <log10 of TGI>
1.20

$$$$
>  <compound>
CC(C)(C)C1CCC2c3c([nH]c4ccccc34)C3C(=O)N(c4ccc([N+](=O)[O-])cc4)C(=O)C3C2C1 (stereo not given)

>  <log10 of TGI>
1.59

$$$$
>  <compound>
CC(C)(C)C[C@H]1N[C@@H](C(=O)NC2CCC(O)CC2)[C@H](c2cccc(Cl)c2F)[C@@]12C(=O)Nc1cc(Cl)ccc12 (stereo not given in full)

>  <log10 of TGI>
1.75

$$$$
>  <compound>
COc1cc2c(/C=C3\C(=O)Nc4ccccc43)c[nH]c2cc1C

>  <log10 of TGI>
1.51

$$$$
>  <compound>
O=[N+]([O-])c1ccc(-n2nc3ccc4nonc4c3n2)cc1

>  <log10 of TGI>
1.70

$$$$
>  <compound>
COc1ccc2[nH]c(C(=O)N3CCN(C(=O)OCc4ccc5c(Cl)cc(Cl)c(O)c5n4)CC3)cc2c1

>  <log10 of TGI>
0.78

$$$$
>  <compound>
O=P1(N(CCCl)CCCl)Oc2ccc(Cl)cc2C(C(Cl)(Cl)Cl)c2cc(Cl)ccc2O1 (stereo not given)

>  <log10 of TGI>
1.61

$$$$
>  <compound>
C[n+]1cccc2ccc3cccnc3c21

>  <log10 of TGI>
1.81

$$$$
